The measurements presented in this section are drawn from PubChem BioAssay.

- TEST_NAME: endothelial E-selectin expression blockers – imaging, HUVEC, immunofluorescence, MLSMR starter and 10KST1 sets, primary screen (AID 487);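 note: 100% = median nuclei count of all wells on the same plate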
- TEST_CONDITIONS: HUVEC TNFalpha-induced E-selectin immunofluorescence imaging, at 2 µM; measured here: cell number, toxicity
nuclei count values, listed per item
METRIC_NAME: nuclei count (%)

COMPOUND: CCOC(=O)C1CCN(Cc2ccc(OC)c(C)c2OC)CC1
OBSERVED_MEASUREMENT: 108
//
COMPOUND: CCCOC(=O)c1ccc(-c2c(C)noc2-c2ccc(OC)cc2O)o1
OBSERVED_MEASUREMENT: 87
//
COMPOUND: CCCCC(=O)Nc1ccc(NC(=O)C2CC2)nc1
OBSERVED_MEASUREMENT: 94.2
//
COMPOUND: COC(=O)c1ccc(C2CC(=O)Nc3cc(OC)c(OC)c(OC)c32)cc1 (stereo not drawn)
OBSERVED_MEASUREMENT: 157
//
COMPOUND: COC(=O)c1ccc2c(c1)C(=O)N(C1CCCCC1)C2=O
OBSERVED_MEASUREMENT: 96.9
//
COMPOUND: CCOc1ccc2[nH]c(=O)c(CN(Cc3nnnn3CCc3ccccc3)CC3CCCO3)cc2c1 (stereo not drawn)
OBSERVED_MEASUREMENT: 107
//
COMPOUND: CC(Sc1nc(-c2ccccc2)cc(C(F)(F)F)n1)C(=O)N1CCCC1 (stereo not drawn)
OBSERVED_MEASUREMENT: 133
//
COMPOUND: COCCNC(=O)CCc1nc(-c2ccccc2)no1
OBSERVED_MEASUREMENT: 123
//
COMPOUND: CCOC(=O)c1ccccc1NC(=O)CSc1nnc(COc2ccccc2C)n1C
OBSERVED_MEASUREMENT: 100
//
COMPOUND: Cc1ccccc1-n1nnnc1SCC(=O)Nc1ccc(S(=O)(=O)N2CCCC2)cc1
OBSERVED_MEASUREMENT: 110
//
COMPOUND: CCc1ccccc1NC(=O)c1cnc2n(c1=O)CCS2
OBSERVED_MEASUREMENT: 117
//
COMPOUND: CC1CN(C(=O)c2cc3cc(Cl)cc(Cl)c3oc2=O)CC(C)O1 (stereo not drawn)
OBSERVED_MEASUREMENT: 100
//
COMPOUND: CCN(CC)CCCNS(=O)(=O)c1ccc(OC)cc1
OBSERVED_MEASUREMENT: 134
//
COMPOUND: CC(C)C(OC(=O)c1ccco1)C(=O)NCc1ccccc1 (stereo not drawn)
OBSERVED_MEASUREMENT: 126
//
COMPOUND: O=C(Cn1nc(Cc2cccnc2)c2ccccc2c1=O)NCC1CCCO1 (stereo not drawn)
OBSERVED_MEASUREMENT: 115
//
COMPOUND: Cc1cccc(NC(=O)c2ccc3ccccc3n2)n1
OBSERVED_MEASUREMENT: 95.8
//
COMPOUND: Cn1c(C(=O)NCC2CCCO2)cc2c(=O)n(C)c3ccccc3c21 (stereo not drawn)
OBSERVED_MEASUREMENT: 107
//
COMPOUND: O=C(NCc1ccc2c(c1)OCO2)C1CCCN(S(=O)(=O)c2cccnc2)C1 (stereo not drawn)
OBSERVED_MEASUREMENT: 119

* * *

- TEST_NAME: inhibitors of TNFa-induced NFkB p65 translocation, primary screen, imaging, HUVEC, MLSMR starter and 10KST1 sets (AID 438);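 note: compound added about 3h40 before a 20 min TNFalpha stimulation; signal is the nuclear over cytoplasmic p65 intensity ratio per well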
- TEST_CONDITIONS: HUVEC TNFa-induced p65 nuclear translocation; at 2 µM, stronger effect = higher value, 0% TNFa-plus-vehicle, 100% no-TNFa wells
METRIC_NAME: inhibition (%)

COMPOUND: CCOc1ccc(S(=O)(=O)NCC2CCCO2)c2cccnc12 (configuration not stated)
METRIC_NAME: inhibition
OBSERVED_MEASUREMENT: -1.7
--
COMPOUND: Clc1ccc(CSc2nnc(Cn3cnc4ccccc43)o2)cc1
METRIC_NAME: inhibition
OBSERVED_MEASUREMENT: -2.5
--
COMPOUND: O=C(c1cc2cc(Cl)cc(Cl)c2oc1=O)N1CCOCC1
METRIC_NAME: inhibition
OBSERVED_MEASUREMENT: 13.1
--
COMPOUND: CCc1ccc(NC(=O)CSc2nnc(Cc3cccn3C)n2-c2ccc(OC)cc2)cc1
METRIC_NAME: inhibition
OBSERVED_MEASUREMENT: 7.4
--
COMPOUND: CCCc1nc(NCc2ccncc2)c2nnn(Cc3ccccc3F)c2n1
METRIC_NAME: inhibition
OBSERVED_MEASUREMENT: -6.1
--
COMPOUND: Cc1ccc(C)c(/C(O)=C2\C(=O)C(=O)N(CCCN3CCOCC3)C2c2cccnc2)c1 (configuration not stated)
METRIC_NAME: inhibition
OBSERVED_MEASUREMENT: 5.5
--
COMPOUND: CN(C)CCCN1C(=O)C(=O)/C(=C(/O)c2ccncc2)C1c1cccc(Br)c1 (configuration not stated)
METRIC_NAME: inhibition
OBSERVED_MEASUREMENT: -2.8
--
COMPOUND: CC1Cc2nc(SCC(=O)Nc3ccccc3F)n(C)c(=O)c2S1 (configuration not stated)
METRIC_NAME: inhibition
OBSERVED_MEASUREMENT: 4.4
--
COMPOUND: CSC1=C(C#N)C(c2ccc(Cl)cc2)C2=C(CC(C)(C)CC2=O)N1 (configuration not stated)
METRIC_NAME: inhibition
OBSERVED_MEASUREMENT: -3.3
--
COMPOUND: Cc1cc(Cl)ccc1OCC(=O)Nn1c(C)ccc1C
METRIC_NAME: inhibition
OBSERVED_MEASUREMENT: -4.9
--
COMPOUND: CC(CN1CCCCC1)OC(=O)c1ccc(Cl)cc1Cl (configuration not stated)
METRIC_NAME: inhibition
OBSERVED_MEASUREMENT: 10.3
--
COMPOUND: Cc1ccc(CCNC(=O)C2CCCN(S(=O)(=O)c3cnc[nH]3)C2)cc1 (configuration not stated)
METRIC_NAME: inhibition
OBSERVED_MEASUREMENT: -0.2
--
COMPOUND: Cc1ccc2[nH]cc(C(=O)CN3CCC4(CC3)OCCO4)c2c1
METRIC_NAME: inhibition
OBSERVED_MEASUREMENT: 2
--
COMPOUND: CCOc1cc(C(=O)N(C)Cc2cc3ccccc3[nH]c2=O)cc(OCC)c1OCC
METRIC_NAME: inhibition
OBSERVED_MEASUREMENT: 0.6
--
COMPOUND: CCN(CC)CCCNS(=O)(=O)c1ccc(OC)cc1
METRIC_NAME: inhibition
OBSERVED_MEASUREMENT: 0.5
--
COMPOUND: COc1cc(OC)nc(NC(=O)CSc2nc3ccccc3o2)n1
METRIC_NAME: inhibition
OBSERVED_MEASUREMENT: -0.3
--
COMPOUND: Cn1cc(C(=O)c2ccc(F)cc2)cc1-c1nc2ccccc2n1C
METRIC_NAME: inhibition
OBSERVED_MEASUREMENT: -6.3

* * *

- TEST_NAME: endothelial E-selectin expression blockers – imaging, HUVEC, immunofluorescence, MLSMR starter and 10KST1 sets, primary screen (AID 487);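 note: 100% = median nuclei count of all wells on the same plate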
- TEST_CONDITIONS: HUVEC TNFalpha-induced E-selectin immunofluorescence imaging, at 2 µM; measured here: cell number, toxicity

COMPOUND: COc1ccc(CCNC(=O)c2cnc3scc(C)n3c2=O)cc1OC
UOM: %
nuclei count: 86.4

COMPOUND: CCOC(=O)c1ccc(NCc2nc3ccccc3[nH]2)cc1
UOM: %
nuclei count: 126

COMPOUND: Cc1cc(N2CCOCC2)nc2ccc(NC(=O)C3CCC(C)CC3)cc12 (stereo not given)
UOM: %
nuclei count: 123

COMPOUND: CCC(C)C(=O)Nc1nc2c(s1)C(=O)CC(C)(C)C2 (stereo not given)
UOM: %
nuclei count: 115

COMPOUND: COc1ccccc1N(CC(=O)NCc1ccccn1)S(C)(=O)=O
UOM: %
nuclei count: 75.4

COMPOUND: CC1(C)C(c2ccccc2)=NC(c2ccccc2)N1O (stereo not given)
UOM: %
nuclei count: 113

COMPOUND: COc1ccc(CC(=O)NC2CCN(CC(=O)Nc3ccc4c(c3)OCCO4)CC2)cc1OC
UOM: %
nuclei count: 111

COMPOUND: Cc1c(NC(=O)Cn2nc(C(=O)O)c3ccccc3c2=O)c(=O)n(-c2ccccc2)n1C
UOM: %
nuclei count: 111

COMPOUND: c1ccc2c(c1)CC(N1CCCCC1)c1ccccc1N2 (stereo not given)
UOM: %
nuclei count: 83.5

COMPOUND: CN(C(=O)c1ccccc1Cl)c1ccccc1
UOM: %
nuclei count: 92.5
